# assay-notes: yeast display, Sf9 membrane polyspecificity reagent, FACS + sequencing; frameworks hold sequencing errors
value-kind: polyreactivity (PSR sort gate)

Completed entries (count: 4):
QVQLVESGGGLVQAGGSLRLSCAASGIIFTQNGMGWYRQAPGKERELVAAISWSAGGTYYADSVKGRFTISRYNAKNTVLLQMNSLKPEDTAVYYCNARVFNVFREFNSWGQGTQVTVSS ... low polyreactivity
QVQLVESGGGLVQAAGSLRLSCAASVIIFGLYTMGWYRQAPGKERELVAAISDSGGRTYYADSVKGRFTISLDNAKNTVFLQMNSLKPEDTAVYYCAAEFWYVWEYNYWGQGTQVTVSS ... high polyreactivity
QVQLVESGGGLVQAGGSLRLSCAASGSIFPSYAMGWYRQAPGKERELVAAISVSGGSTYYADSVKGRFTISRDNAKNTVYLQMNSLKPEDTAVYYCAAQHGYPRYYYWGQGTQVTVSS ... high polyreactivity
QVQLVESGGGLVQAGGSLRLSCAASGSIFISYNMGWYGQAPGKERELVAANNYNGGRTNYADSVKGRFTISRDKAKNTVYLQINSLKPEDTAVYYCNAAYSYSIYDYWGQGTQVTVSS ... low polyreactivity

Kindly review the next sequence as well.
query: # return recorded polyreactivity (PSR sort gate) for entry `QVQLVESAGGLVQAGGSLRLSCAASGSNDTNAMGWYRQEPWKERELVADITSGTPTYADSVKGRFTISRDNAKNTVFLQMNSLKPEDTAVYYCAADIPPWCGDYWGQGTQVTVSS`
result: low polyreactivity

###

# assay-notes: yeast display, Sf9 membrane polyspecificity reagent, FACS + sequencing; frameworks hold sequencing errors
value-kind: polyreactivity (PSR sort gate)

Completed entries (count: 4):
QVQLVESGGGLVQAGGSLRFICAASGFSLYHYAMGWYRQAPGKERELVAAITTSGSRTYYADSVKGRFTISRDTAKITVYLQMNSLKPEDTAVYYCNAVASSTEYDYWGQGTQVTVSS ... high polyreactivity
QVQLVESGGGLVQAGGSLRLSCAASGSTFGFYAMGWYRQAPGTERELVAVISSGDSPYYADSVKGRFTISRDNAKNTVYLKMNSRKPEDTAVYYCAKDALVIDGGGGYDYWGQGTQVTVSS ... low polyreactivity
QVQLVESGGGLVQAGGSLRLSCAASGFIFIAYAMGWYRQAPGKERELVAAISKSGTRTYYADSVKGRFTISRDNAKNTVYLQMNSLKPEDTAVYYCATYSTYNKGTHGDYWGQGTQVTVSS ... high polyreactivity
QVQLVESGGGLVQAGGSLRLSCAASGFTFSSYDMGWYRQAPGKERELVAAISRSGGSTYYADSVKGRFTISRDNAKNTVYLQMNCLKPEDTAVYYARAKYSRVTLYQGYGYWGQGTQVTVSS ... high polyreactivity

Kindly review the next sequence as well.
query: # return recorded polyreactivity (PSR sort gate) for entry `QVQLVESGGGLVQAGGSLRLSCAASGRNFWYYAMGWYRQAPGKERELVAGITYGDGSTYYADSVKGRFTISRDNAKNTVYLQMNSLKPEDTAVYYCAVDLRSYWFRYGFDYWGQGTQVTVSS`
result: low polyreactivity

###

# assay-notes: yeast display, Sf9 membrane polyspecificity reagent, FACS + sequencing; frameworks hold sequencing errors
value-kind: polyreactivity (PSR sort gate)

Completed entries (count: 8):
QVQLVESGGGLVQAGGSLRLTCAASGITFYGNAMGWYRQAPGKERELVANTYYADSVKGRFTISRDNAKNTVYLQMNSLIAEDTAVYYCATRNARYRSQPPGYDYWGQGTQVTVSS ... low polyreactivity
QVQLVESGGGLVQAGGSLRLSCAASGFIFNHYAMAWYRQAPGKEREFVAAISWSGGSTYYADSVNGRFTISLDNAKNTVYLQMNSLKPEDTAVYYCGASYNGLWHGDYDYWGQGTQVTVSS ... low polyreactivity
QVQLVESGGGLVQAGGSLRLSCAASGNIFLDYAMGWYRQAPGKEREWVAAITSGGSTNYADSVKGRFTISRDNAKNTVYLQMNSLKPEDTAVYYCNKDVWDGYDWPEFDYWGQGTQVTVSS ... low polyreactivity
QVQLVESGGGLVQAGGSLRLSCAASGSIFSTYAMGWYRQAPGKERELVAAISQGGSSTYYADSVKGRFTISRDIAKNTVYLQMKSLKAEDTAVYYCAKFPYLKFGYDYWGQCTQVTVSS ... high polyreactivity
QVQLVESGGGLVQAGGSLRLSCAASGRTFYFNAMGWYRQAPGKERELVATITSDGSTNYADSVKGRFTISRDNAKNTVYLQMNSLKPEDTAVYYCAADYYRDIWPWYPLYNYWGQGTQVTVSS ... low polyreactivity
QVQLEESGRGLVQAGGSLRLSCAASGSIFGVYTMGWYRPAPRKDRELVAAISASGGRTYYADSVKGRFTISRDTAKITVYLQMNSLKPEDTAVYYCAARASKGYGWYDYWGQGTQVTVSS ... high polyreactivity
QVQLVESGGVLVQAGGSLRLSCAASGSTFEYNVMGWYRPAPGKERELVAAITTGASTNYADSVKGRFTISRDNAKNTVYLQMNCLKPEDTAVYYCAARYWRVRHGSVPAYSGYDYWGLGTQVTVSS ... low polyreactivity
QVQLVESGGGLVQAGGSLRLSCAASGFTFVFYAMGWYRQAPGKERELVAAISSGGGGTYYADSVKGRFTISRDNAKNTVYLQMNSLKPEDTAVYYCNTRYHKVYYGNDYWGQGTQVTVSS ... high polyreactivity

query: # return recorded polyreactivity (PSR sort gate) for entry `QVQLEESAGGLVQAGGSLRLSCAASGRTFRRYAMGWYRPAPGKERELVAVISSGGRTNYADSVKGRFTISRDNAKNTVYLQLNSLKPEDTAVYYCNAGPLYSGVYSGYFWGQGTQVTVSS`
result: high polyreactivity

query: # return recorded polyreactivity (PSR sort gate) for entry `QVQLVESGGGLVQAGGSLRLSCAASGRTFRYNGMGWYRQAPGKERELVAAITLRDGRTYYADSVKGRITISRDNPKNTVNIQMNSLIPEHTAVYYCALEYWVVNAQGNDYWGQGTQVSVSS`
result: high polyreactivity

query: # return recorded polyreactivity (PSR sort gate) for entry `QVQLVESGGGLVQAGGSLRLSCAASGRTFQIYAMGWYRQAPGKERELVAAISRRGGSTYYADSVKGRFTISRDNAKNTVYLQMNSLKPEDTAVYYCNVVHWRGEYSYAGYDYWGQGTQVTVSS`
result: high polyreactivity

###

# assay-notes: yeast display, Sf9 membrane polyspecificity reagent, FACS + sequencing; frameworks hold sequencing errors
value-kind: polyreactivity (PSR sort gate)

QVQRVESGGGLVQAGGSLRLSCAASGLTFRYYAVGWYRQAPGKERELVAAITSNGGRTYYADSVKGRFTISRDNAKNTVYLQMNSLKPEDTAVYYCAAVYLYYGGVDYWGQGTQVTVSS ... high polyreactivity
QVQLVESGGGLVQAGGSLRLSCAASGSIFVGNAMGWYRQAPGKERELVAAISSSGGRTFYADSVKWRFTISRDNAKNTVYLQMNSLKPEDTAVYYCAAVYTHWQQRMDYWGQGTQVTVSS ... high polyreactivity
QVQLVESGGGLVQAGGSLRLSCAASGSTSRHNTMGWYRQPPGKERELVAAISGGGTTYYADSVKGRFTISRDNAKNTVYLQMNSLKPEDTAVYYCAAAFWGDYASSYRSGLDYWGQGTQVTVSS ... low polyreactivity
QVQLVESVGGLVQAGGRLRLSCDASGFIFANYAMGWYRQATGKERELVAAITSGTGTNYADSVKGRFTISRDNAKNTVYLQMNSLKPEDTAVYYCAAYYTWLSEFGYWGQGTQVTVSS ... low polyreactivity
QVQLVESGGGLVQAGGSLRLSCAASGRIFSQYDMGWYRPAPGKERELVAAISGGVGTNYADSVKGRFTISRDNAKNTVYLQMNSLKPEDTAVYYCAADYSFERSEYEYWGQGTQVTVSS ... low polyreactivity
QVQLVESGGGLVQAGGSLRLSCAASGSTFYSYVMGWYRQAPGKERELVAAITYSGGRTYYADSVKGRFTISRDNAKNTVYLQMNSLKPEDTAVYYCAKRVFNYQRYDYWGQGTQVTVSS ... high polyreactivity
QVQLVESGGGLVQAGGSLRLSCAASGRIFCSYTMGWYRQAPGKERELVAAISWRGGSTYYADSVKGRFTISRDNAKNTVYLQMNSLKPEDTAVYYCAADSRSPPGDYWGQGTQVTVSS ... low polyreactivity
QDQLVESVGGLVQAGGSLRLSCAASGRTFGRYPMGSYIEAPGKEREMVAAIRSGGSTYYADSVKGRFTISRDNAKNTVYLLMNSLKPEDTAVYYCAADIDRHLTGFAYYRLDYWGQGTQVTVSS ... low polyreactivity

query: # return recorded polyreactivity (PSR sort gate) for entry `QDQLVESGGGLVQARGSLRLSCASSGSICDHYVMGWYRQAPGKERELVAAITSGDRTNYADSVKGRFTISRDKAKNTVYLQMNSLTPEDTEGYYCNADYQSYFYYTTWYYDYDYWGKGTQVTVSS`
result: low polyreactivity

query: # return recorded polyreactivity (PSR sort gate) for entry `QVQLVESGGGLVQAGGSLRLSCAASGRTFVPNAMGWYRQAPGKERELVARISSGDSTYYADSVKGRFTISRDNAKNTVYLQMNSLKPEDTAVYYCAASGRQNGYGRRQYYYWGQGTQVTVSS`
result: high polyreactivity

query: # return recorded polyreactivity (PSR sort gate) for entry `QVQLVESGGGLVQAGGSLRLSCAASGSTIGYYAMGWYRQAPGTERELVAAITRSGGSTSYADSVKGRFTISRDNAKNTVYLQMNSLKPEDTAVYYCAARFYRPYYARQGYNYWGQGTQVTVSS`
result: high polyreactivity

query: # return recorded polyreactivity (PSR sort gate) for entry `QVQLVESGAGLVQAGGSLRLSCAASGLIFSVYGLGWYRQEPGKERELVAAISSRGGSTYYADSVKGRFTISRVNANYTVYLQMNSLKPEDTAFYYCARRAYREHHRCQYYYWGQGTQLTVSS`
result: high polyreactivity

All values here come from the nanobody polyreactivity screen of Harvey et al. (2022).
